Long-term MCM ± SD: recorded values
test: Stability of the analytes in human plasma at QC levels; type: in vitro ADME; settings: low QC; 40 days, −40 °C; human plasma; n = 5

molecule	Long-term MCM ± SD
CCC(=O)OCC(=O)[C@@]1(O)[C@@H](C)C[C@H]2[C@@H]3CCC4=CC(=O)C=C[C@]4(C)[C@@]3(F)[C@@H](O)C[C@@]21C [B21P, betamethasone 21-monopropionate]	0.488 ± 0.067 × 10^−9 mol·dm^−3
CCC(=O)O[C@]1(C(=O)CO)[C@@H](C)C[C@H]2[C@@H]3CCC4=CC(=O)C=C[C@]4(C)[C@@]3(F)[C@@H](O)C[C@@]21C [B17P, betamethasone 17-monopropionate]	0.205 ± 0.027 × 10^−9 mol·dm^−3
C[C@H]1C[C@H]2[C@@H]3CCC4=CC(=O)C=C[C@]4(C)[C@@]3(F)[C@@H](O)C[C@]2(C)[C@@]1(O)C(=O)COP(=O)([O-])[O-].[Na+].[Na+] [BSP, betamethasone sodium phosphate]	4.994 ± 0.560 × 10^−9 mol·dm^−3
CCC(=O)OCC(=O)[C@@]1(OC(=O)CC)[C@@H](C)C[C@H]2[C@@H]3CCC4=CC(=O)C=C[C@]4(C)[C@@]3(F)[C@@H](O)C[C@@]21C [BDP, betamethasone dipropionate]	0.240 ± 0.012 × 10^−9 mol·dm^−3
C[C@H]1C[C@H]2[C@@H]3CCC4=CC(=O)C=C[C@]4(C)[C@@]3(F)[C@@H](O)C[C@]2(C)[C@@]1(O)C(=O)CO	0.597 ± 0.064 × 10^−9 mol·dm^−3

* * *

experiment: Stability of the analytes in human plasma at QC levels; format: in vitro ADME; settings: high QC; 6 h, r.t.; human plasma; n = 5
measurement-name: Short-term Dev. (%)

compound	experimental-result
C[C@H]1C[C@H]2[C@@H]3CCC4=CC(=O)C=C[C@]4(C)[C@@]3(F)[C@@H](O)C[C@]2(C)[C@@]1(O)C(=O)CO	8.02%
CCC(=O)OCC(=O)[C@@]1(O)[C@@H](C)C[C@H]2[C@@H]3CCC4=CC(=O)C=C[C@]4(C)[C@@]3(F)[C@@H](O)C[C@@]21C [B21P, betamethasone 21-monopropionate]	−8.64%
CCC(=O)O[C@]1(C(=O)CO)[C@@H](C)C[C@H]2[C@@H]3CCC4=CC(=O)C=C[C@]4(C)[C@@]3(F)[C@@H](O)C[C@@]21C [B17P, betamethasone 17-monopropionate]	−8.39%
CCC(=O)OCC(=O)[C@@]1(OC(=O)CC)[C@@H](C)C[C@H]2[C@@H]3CCC4=CC(=O)C=C[C@]4(C)[C@@]3(F)[C@@H](O)C[C@@]21C [BDP, betamethasone dipropionate]	−0.51%
C[C@H]1C[C@H]2[C@@H]3CCC4=CC(=O)C=C[C@]4(C)[C@@]3(F)[C@@H](O)C[C@]2(C)[C@@]1(O)C(=O)COP(=O)([O-])[O-].[Na+].[Na+] [BSP, betamethasone sodium phosphate]	−3.78%

* * *

The autosampler MCM ± SD (48h): recorded values
test: Stability of the analytes in human plasma at QC levels; format: in vitro ADME; conditions: low QC; autosampler r.t., 48 h; n = 5

molecule	The autosampler MCM ± SD (48h)
CCC(=O)OCC(=O)[C@@]1(OC(=O)CC)[C@@H](C)C[C@H]2[C@@H]3CCC4=CC(=O)C=C[C@]4(C)[C@@]3(F)[C@@H](O)C[C@@]21C [BDP, betamethasone dipropionate]	0.222 ± 0.020 × 10^−9 mol·dm^−3
C[C@H]1C[C@H]2[C@@H]3CCC4=CC(=O)C=C[C@]4(C)[C@@]3(F)[C@@H](O)C[C@]2(C)[C@@]1(O)C(=O)CO	0.569 ± 0.087 × 10^−9 mol·dm^−3
CCC(=O)O[C@]1(C(=O)CO)[C@@H](C)C[C@H]2[C@@H]3CCC4=CC(=O)C=C[C@]4(C)[C@@]3(F)[C@@H](O)C[C@@]21C [B17P, betamethasone 17-monopropionate]	0.185 ± 0.025 × 10^−9 mol·dm^−3
CCC(=O)OCC(=O)[C@@]1(O)[C@@H](C)C[C@H]2[C@@H]3CCC4=CC(=O)C=C[C@]4(C)[C@@]3(F)[C@@H](O)C[C@@]21C [B21P, betamethasone 21-monopropionate]	0.448 ± 0.038 × 10^−9 mol·dm^−3
C[C@H]1C[C@H]2[C@@H]3CCC4=CC(=O)C=C[C@]4(C)[C@@]3(F)[C@@H](O)C[C@]2(C)[C@@]1(O)C(=O)COP(=O)([O-])[O-].[Na+].[Na+] [BSP, betamethasone sodium phosphate]	5.585 ± 0.616 × 10^−9 mol·dm^−3

* * *

assay: Stability of the analytes in human plasma at QC levels; type: in vitro ADME; settings: middle QC; four cycles, −40 °C; human plasma; n = 5
Freeze–thaw MCM ± SD: recorded values

molecule	Freeze–thaw MCM ± SD
C[C@H]1C[C@H]2[C@@H]3CCC4=CC(=O)C=C[C@]4(C)[C@@]3(F)[C@@H](O)C[C@]2(C)[C@@]1(O)C(=O)CO	10.48 ± 0.645 × 10^−9 mol·dm^−3
C[C@H]1C[C@H]2[C@@H]3CCC4=CC(=O)C=C[C@]4(C)[C@@]3(F)[C@@H](O)C[C@]2(C)[C@@]1(O)C(=O)COP(=O)([O-])[O-].[Na+].[Na+] [BSP, betamethasone sodium phosphate]	39.30 ± 5.785 × 10^−9 mol·dm^−3
CCC(=O)OCC(=O)[C@@]1(OC(=O)CC)[C@@H](C)C[C@H]2[C@@H]3CCC4=CC(=O)C=C[C@]4(C)[C@@]3(F)[C@@H](O)C[C@@]21C [BDP, betamethasone dipropionate]	4.811 ± 0.135 × 10^−9 mol·dm^−3
CCC(=O)O[C@]1(C(=O)CO)[C@@H](C)C[C@H]2[C@@H]3CCC4=CC(=O)C=C[C@]4(C)[C@@]3(F)[C@@H](O)C[C@@]21C [B17P, betamethasone 17-monopropionate]	1.250 ± 0.112 × 10^−9 mol·dm^−3
CCC(=O)OCC(=O)[C@@]1(O)[C@@H](C)C[C@H]2[C@@H]3CCC4=CC(=O)C=C[C@]4(C)[C@@]3(F)[C@@H](O)C[C@@]21C [B21P, betamethasone 21-monopropionate]	1.949 ± 0.147 × 10^−9 mol·dm^−3

* * *

Long-term Dev. (%): recorded values
assay: Stability of the analytes in human plasma at QC levels; assay type: in vitro ADME; conditions: middle QC; 40 days, −40 °C; human plasma; n = 5

compound	Long-term Dev. (%)
C[C@H]1C[C@H]2[C@@H]3CCC4=CC(=O)C=C[C@]4(C)[C@@]3(F)[C@@H](O)C[C@]2(C)[C@@]1(O)C(=O)CO	5.78
CCC(=O)OCC(=O)[C@@]1(O)[C@@H](C)C[C@H]2[C@@H]3CCC4=CC(=O)C=C[C@]4(C)[C@@]3(F)[C@@H](O)C[C@@]21C [B21P, betamethasone 21-monopropionate]	−1.98
CCC(=O)OCC(=O)[C@@]1(OC(=O)CC)[C@@H](C)C[C@H]2[C@@H]3CCC4=CC(=O)C=C[C@]4(C)[C@@]3(F)[C@@H](O)C[C@@]21C [BDP, betamethasone dipropionate]	1.80
C[C@H]1C[C@H]2[C@@H]3CCC4=CC(=O)C=C[C@]4(C)[C@@]3(F)[C@@H](O)C[C@]2(C)[C@@]1(O)C(=O)COP(=O)([O-])[O-].[Na+].[Na+] [BSP, betamethasone sodium phosphate]	−1.06
CCC(=O)O[C@]1(C(=O)CO)[C@@H](C)C[C@H]2[C@@H]3CCC4=CC(=O)C=C[C@]4(C)[C@@]3(F)[C@@H](O)C[C@@]21C [B17P, betamethasone 17-monopropionate]	5.91

* * *

experiment: Stability of the analytes in human plasma at QC levels; type: in vitro ADME; conditions: middle QC; 6 h, r.t.; human plasma; n = 5
measurement-name: Short-term Dev. (%)

compound	experimental-result
CCC(=O)O[C@]1(C(=O)CO)[C@@H](C)C[C@H]2[C@@H]3CCC4=CC(=O)C=C[C@]4(C)[C@@]3(F)[C@@H](O)C[C@@]21C [B17P, betamethasone 17-monopropionate]	2.08
C[C@H]1C[C@H]2[C@@H]3CCC4=CC(=O)C=C[C@]4(C)[C@@]3(F)[C@@H](O)C[C@]2(C)[C@@]1(O)C(=O)COP(=O)([O-])[O-].[Na+].[Na+] [BSP, betamethasone sodium phosphate]	−2.55
CCC(=O)OCC(=O)[C@@]1(O)[C@@H](C)C[C@H]2[C@@H]3CCC4=CC(=O)C=C[C@]4(C)[C@@]3(F)[C@@H](O)C[C@@]21C [B21P, betamethasone 21-monopropionate]	−2.87
CCC(=O)OCC(=O)[C@@]1(OC(=O)CC)[C@@H](C)C[C@H]2[C@@H]3CCC4=CC(=O)C=C[C@]4(C)[C@@]3(F)[C@@H](O)C[C@@]21C [BDP, betamethasone dipropionate]	2.04
C[C@H]1C[C@H]2[C@@H]3CCC4=CC(=O)C=C[C@]4(C)[C@@]3(F)[C@@H](O)C[C@]2(C)[C@@]1(O)C(=O)CO	8.82
